Target: WEE1 kinase enzyme (Homo sapiens)
Sequence (P30291 whole entry): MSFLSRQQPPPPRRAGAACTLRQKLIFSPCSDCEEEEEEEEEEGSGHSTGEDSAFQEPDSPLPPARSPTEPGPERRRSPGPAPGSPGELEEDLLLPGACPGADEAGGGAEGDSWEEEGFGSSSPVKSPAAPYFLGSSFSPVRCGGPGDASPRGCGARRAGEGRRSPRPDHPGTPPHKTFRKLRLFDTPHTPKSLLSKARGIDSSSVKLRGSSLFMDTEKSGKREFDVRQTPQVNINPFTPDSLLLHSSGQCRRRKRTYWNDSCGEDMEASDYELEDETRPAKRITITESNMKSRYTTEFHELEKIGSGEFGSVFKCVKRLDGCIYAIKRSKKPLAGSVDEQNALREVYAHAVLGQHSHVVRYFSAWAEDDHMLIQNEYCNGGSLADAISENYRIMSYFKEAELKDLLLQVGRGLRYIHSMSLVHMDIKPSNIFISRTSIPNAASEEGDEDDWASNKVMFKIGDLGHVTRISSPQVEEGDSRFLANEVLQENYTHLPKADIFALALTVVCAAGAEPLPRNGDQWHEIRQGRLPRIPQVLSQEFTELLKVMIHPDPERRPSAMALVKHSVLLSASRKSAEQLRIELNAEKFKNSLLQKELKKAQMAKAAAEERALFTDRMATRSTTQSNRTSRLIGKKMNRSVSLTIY
recorded-endpoint: IC50 (nM)
Record the value in nM, omitting the unit from your answer.

The compound CC1Oc2nc(Nc3ccc4c(c3)CNCC4)ncc2C(=O)N1c1c(Cl)cccc1Cl (stereo not shown) , when measured on WEE1 kinase enzyme (Homo sapiens), yielded IC50 of 133

###

Tested on: U-87 MG
Test: Cytotoxicity assay (resazurin) in U-87 MG cell line
Assay type: cell-based
Details: Homo sapiens, U-87 MG, 72 h, read-out: U-87 MG IC50
recorded-endpoint: IC50

// IC50 value for CC1Oc2nc(Nc3ccc4c(c3)CNCC4)ncc2C(=O)N1c1c(Cl)cccc1Cl (stereo not shown) : 11.4 µM
